# Tested on: MDA-MB-435 melanoma
# test_description: NCI-60 one-dose screen, 48 h (100 = growth as untreated, 0 = no growth, -100 = all killed)
# experimental_setup: 10 µM unless noted
Compounds without any hit were thinned out: in the full panel of roughly 83,000, 20% have a hit.
Reported values of growth for individual entries
endpoint: growth (%)

O=S(=O)(Oc1ccc(Br)cc1)c1ccc(Cl)cc1
104
O=C(/C=C/c1cccc(Cl)c1Cl)Nc1ncc(Cc2ccccc2Cl)s1
-46.5
CO[C@H](C(=O)[C@@H](O)[C@@H](C)O)[C@@H]1Cc2cc3cc(O[C@H]4C[C@@H](O[C@H]5C[C@@H](O)[C@H](O)C(C)O5)[C@H](O)C(C)(O)O4)cc(O)c3c(O)c2C(=O)[C@H]1O[C@H]1C[C@@H](O[C@H]2C[C@@H](O[C@H]3C[C@@H](OC)[C@H](O)C(C)O3)[C@@H](O)C(C)O2)[C@H](O)C(C)O1 (stereo partly drawn)
24.8
